Measured values drawn from patent US12624024B2 for this set.

methodDescription: Human Hepatocyte Stability
Assay type: in vitro ADME
conditionDetails: human hepatocytes 0.5×10^6 cells/mL, 120 min, read-out: in vitro CLint (hepatic)
Experimental: The tested compound was incubated in duplicate with incubation media (Williams' Medium E with 1× GlutaMAX) containing human hepatocytes (0.5×10^6 cells/mL). These incubations were carried out at a final test concentration of 1 μM over a total incubation period of 120 minutes. […] The samples were analyzed by UPLC-MS/MS to determine the concentration of the tested compound and the percentage remaining, intrinsic clearance (in vitro CLint) and half-life (t½) values were calculated. […]
measuredAttribute: microsomal CLint at 1 μM

compound | microsomal CLint at 1 μM
COc1ncc(CN2CCOc3c(Cl)cc(-n4ccc5c(F)c(F)ccc54)cc3C2)cn1 [Compound 25] | 10 to 20 µL/min/mg

The compound listed as Fc1ccc2c(ccn2-c2cc(Cl)c3c(c2)CN(Cc2ccnc(C4COC4)c2)CCO3)c1 [Compound 187] shows microsomal CLint at 1 μM equal to > 20 µL/min/mg

The compound listed as Cc1[nH]c(=O)ncc1CN1CCOc2c(Cl)cc(-n3ccc4cc(F)ccc43)cc2C1 [Compound 156] shows microsomal CLint at 1 μM equal to 5 to 10 µL/min/mg

The compound listed as Fc1ccc2c(ccn2-c2cc(Cl)c3c(c2)CN(Cc2cc[nH]c(=S)c2)CCO3)c1 [Compound 189] shows microsomal CLint at 1 μM equal to > 20 µL/min/mg

The compound listed as C[C@@H]1COc2c(Cl)cc(-n3ccc4cc(F)ccc43)cc2CN1Cc1cnc(N)nc1 [Compound 11] shows microsomal CLint at 1 μM equal to > 20 µL/min/mg

The compound listed as C[C@@H]1COc2c(Cl)cc(-n3ccc4cc(F)ccc43)cc2CN1Cc1cnc(=O)[nH]c1 [Compound 9] shows microsomal CLint at 1 μM equal to > 20 µL/min/mg

The compound listed as O=c1cc(CN2CCOc3c(Cl)cc(-n4ccc5cc(F)ccc54)cc3C2)cn[nH]1 [Compound 169] shows microsomal CLint at 1 μM equal to 5 to 10 µL/min/mg

The compound listed as COCc1ncc(CN2CCOc3c(Cl)cc(-n4ccc5cc(F)ccc54)cc3C2)cn1 [Compound 142] shows microsomal CLint at 1 μM equal to 5 to 10 µL/min/mg

The compound listed as O=C(O)c1cc(CN2CCOc3c(Cl)cc(-n4ccc5cc(F)ccc54)cc3C2)ccn1 [Compound 185] shows microsomal CLint at 1 μM equal to < 5 µL/min/mg

The compound listed as Cc1c(CN2CCOc3c(Cl)cc(-n4ccc5cc(F)ccc54)cc3C2)cc[nH]c1=O [Compound 194] shows microsomal CLint at 1 μM equal to 10 to 20 µL/min/mg

The compound listed as O=C(O)c1ncc(CN2CCOc3c(Cl)cc(-n4ccc5cc(F)ccc54)cc3C2)cn1 [Compound 144] shows microsomal CLint at 1 μM equal to < 5 µL/min/mg

The compound listed as O=c1ncc(CN2CCOc3c(Cl)cc(-n4ccc5cc(F)ccc54)cc3C2)c[nH]1 [Compound 58] shows microsomal CLint at 1 μM equal to 5 to 10 µL/min/mg

The compound listed as Nc1ncc(CN2CCOc3c(Cl)cc(-n4ccc5cc(F)ccc54)cc3C2)cn1 [Compound 146] shows microsomal CLint at 1 μM equal to 10 to 20 µL/min/mg

The compound listed as O=c1cc(CN2CCOc3c(Cl)cc(-n4ccc5cc(F)ccc54)cc3C2)cc[nH]1 [Ref, reference compound] shows microsomal CLint at 1 μM equal to 5 to 10 µL/min/mg

The compound listed as O=c1[nH]ccc(CN2CCOc3c(Cl)cc(-n4ccc5cc(F)ccc54)cc3C2)c1F [Compound 193] shows microsomal CLint at 1 μM equal to 10 to 20 µL/min/mg

----------
measuredTarget: EP2 receptor (Homo sapiens, UniProt P43116)
Construct: expressed in transfected cells; host or cells: CHO-K1 cells (ATCC), transient transfection with FuGENE 6
Sequence (P43116 whole entry): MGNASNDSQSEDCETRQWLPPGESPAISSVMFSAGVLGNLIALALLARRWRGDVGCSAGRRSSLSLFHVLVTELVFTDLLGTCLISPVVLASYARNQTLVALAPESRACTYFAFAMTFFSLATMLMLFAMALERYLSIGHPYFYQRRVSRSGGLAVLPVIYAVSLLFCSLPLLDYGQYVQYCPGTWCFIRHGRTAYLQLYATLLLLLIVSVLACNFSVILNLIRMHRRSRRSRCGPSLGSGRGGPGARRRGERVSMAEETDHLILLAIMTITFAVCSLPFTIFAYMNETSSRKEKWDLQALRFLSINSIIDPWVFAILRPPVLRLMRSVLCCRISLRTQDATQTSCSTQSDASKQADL
methodDescription: EP2 Potency Assay (cAMP TR-FRET, CHO-K1 cells transfected with EP2 receptor, PGE2 at EC80)
Assay type: cell-based
conditionDetails: CHO-K1 cells expressing EP2, prostaglandin E2 at EC80, read-out: EP2 Potency (IC50 category)
pIC50: −log10 of the molar value.
Item-by-item account of pIC50

chemicalSmiles | measuredAttribute | result
NC(=O)[C@H]1CC[C@@H](CN2CCOc3c(Cl)cc(-n4ccc5cc(F)ccc54)cc3C2)CC1 | pIC50 | 5.30 to 6.00

The compound listed as O=C(O)[C@H]1CC[C@@H](CN2CCOc3c(Cl)cc(-n4ccc5cc(F)ccc54)cc3C2)CC1 shows pIC50 equal to 5.30 to 6.00

The compound listed as Fc1ccc2c(ccn2-c2cc(Cl)c3c(c2)CN(Cc2cnco2)CCO3)c1 shows pIC50 equal to 6.00 to 6.30

The compound listed as COc1ncc(CN2CCOc3c(Cl)cc(-n4ccc5cc(SC)ccc54)cc3C2)cn1 shows pIC50 equal to < 5.30

The compound listed as [2H]C1([2H])c2cc(-n3ccc4cc(F)ccc43)cc(Cl)c2OCCN1Cc1cc[nH]c(=O)c1 shows pIC50 equal to 6.30 to 7.00

The compound listed as COc1ccc2c(ccn2-c2cc(Cl)c3c(c2)CN(Cc2cnc(OC)nc2)CCO3)c1 shows pIC50 equal to < 5.30

The compound listed as O=C(O)c1ncc(CN2CCOc3c(Cl)cc(-n4ccc5cc(F)ccc54)cc3C2)cn1 shows pIC50 equal to > 7.00

The compound listed as COc1ncc(CN2CCOc3c(Cl)cc(-n4ccc5cc(N(C)C)ccc54)cc3C2)cn1 shows pIC50 equal to < 5.30

----------
methodDescription: Human Liver Microsome Stability
Format: in vitro ADME
conditionDetails: human liver microsomes 0.5 mg/mL, 37° C., 60 min, read-out: T1/2 (microsomal)
measuredAttribute: half-life at 2 μM

Worked examples, 2 molecules total:
molecule | half-life at 2 μM
O=C1NC=C(CN2CCOc3c(Cl)cc(-n4ccc5cc(F)ccc54)cc3C2)CN1 [Compound 202] | 50 to 100 min
Nc1ncc(CN2CCOc3c(Cl)cc(-n4ccc5cc(F)ccc54)cc3C2)cn1 [Compound 146] | < 20 min

The molecule listed as C[C@@H]1COc2c(Cl)cc(-n3ccc4cc(F)ccc43)cc2CN1Cc1cnc(N)nc1 [Compound 11] shows half-life at 2 μM equal to < 20 min

The molecule listed as O=c1ncc(CN2CCOc3c(Cl)cc(-n4ccc5cc(F)ccc54)cc3C2)c[nH]1 [Compound 58] shows half-life at 2 μM equal to > 100 min

The molecule listed as COc1ncc(CN2CCOc3c(Cl)cc(-n4ccc5cc(F)ccc54)cc3C2)cn1 [Compound 13] shows half-life at 2 μM equal to < 20 min

The molecule listed as C[C@@H]1COc2c(Cl)cc(-n3ccc4cc(F)ccc43)cc2CN1Cc1cnc(=O)[nH]c1 [Compound 9] shows half-life at 2 μM equal to 50 to 100 min

The molecule listed as O=C1CC(CN2CCOc3c(Cl)cc(-n4ccc5cc(F)ccc54)cc3C2)=NN1 [Compound 198] shows half-life at 2 μM equal to 20 to 50 min

The molecule listed as O=C1CC(CN2CCOc3c(Cl)cc(-n4ccc5cc(F)ccc54)cc3C2)CCN1 (centres unmarked) [Compound 200] shows half-life at 2 μM equal to 20 to 50 min

----------
measuredTarget: EP2 receptor (Homo sapiens)
methodDescription: EP2 Potency Assay (cAMP TR-FRET, CHO-K1 cells transfected with EP2 receptor, PGE2 at EC80)
conditionDetails: CHO-K1 cells expressing EP2, prostaglandin E2 at EC80, read-out: EP2 Potency (IC50 category)
pIC50: −log10 of the molar value.
measuredAttribute: pIC50

Worked examples, 5 compounds total:
compound | measuredTarget | result
Fc1ccc2c(ccn2-c2cc(Cl)c3c(c2)CN(Cc2ccnc(C4COC4)c2)CCO3)c1 | EP2 receptor (Homo sapiens) | 6.30 to 7.00
O=c1ncc(CN2CCOc3c(Cl)cc(-c4cccc5c4CCCC5)cc3C2)c[nH]1 | EP2 receptor (Homo sapiens) | < 5.30
Fc1ccc2c(ccn2-c2cc(Cl)c3c(c2)CN(Cc2cc[nH]n2)CCO3)c1 | EP2 receptor (Homo sapiens) | < 5.30
COc1nccc(CN2Cc3cc(-n4ccc5cc(F)ccc54)cc(Cl)c3OC[C@H]2C)n1 | EP2 receptor (Homo sapiens) | 6.00 to 6.30
O=c1cc(CN2Cc3cc(-n4ccc5cc(F)ccc54)cc(Cl)c3OCC2C2CC2)cc[nH]1 (centres unmarked) | EP2 receptor (Homo sapiens) | < 5.30

The compound listed as OCc1cc(CN2CCOc3c(Cl)cc(-n4ccc5cc(F)ccc54)cc3C2)ccn1 shows pIC50 equal to 6.30 to 7.00

The compound listed as Fc1ccc2c(ccn2-c2cc(Cl)c3c(c2)CN(Cc2ccsn2)CCO3)c1 shows pIC50 equal to < 5.30

The compound listed as COc1ncc(CN2CCOc3c(Cl)cc(-n4c(C)cc5cc(F)ccc54)cc3C2)cn1 shows pIC50 equal to 5.30 to 6.00
